# targetEntity: T1, human complement C2 (human, UniProt P06681 21-752)
# T1 sequence: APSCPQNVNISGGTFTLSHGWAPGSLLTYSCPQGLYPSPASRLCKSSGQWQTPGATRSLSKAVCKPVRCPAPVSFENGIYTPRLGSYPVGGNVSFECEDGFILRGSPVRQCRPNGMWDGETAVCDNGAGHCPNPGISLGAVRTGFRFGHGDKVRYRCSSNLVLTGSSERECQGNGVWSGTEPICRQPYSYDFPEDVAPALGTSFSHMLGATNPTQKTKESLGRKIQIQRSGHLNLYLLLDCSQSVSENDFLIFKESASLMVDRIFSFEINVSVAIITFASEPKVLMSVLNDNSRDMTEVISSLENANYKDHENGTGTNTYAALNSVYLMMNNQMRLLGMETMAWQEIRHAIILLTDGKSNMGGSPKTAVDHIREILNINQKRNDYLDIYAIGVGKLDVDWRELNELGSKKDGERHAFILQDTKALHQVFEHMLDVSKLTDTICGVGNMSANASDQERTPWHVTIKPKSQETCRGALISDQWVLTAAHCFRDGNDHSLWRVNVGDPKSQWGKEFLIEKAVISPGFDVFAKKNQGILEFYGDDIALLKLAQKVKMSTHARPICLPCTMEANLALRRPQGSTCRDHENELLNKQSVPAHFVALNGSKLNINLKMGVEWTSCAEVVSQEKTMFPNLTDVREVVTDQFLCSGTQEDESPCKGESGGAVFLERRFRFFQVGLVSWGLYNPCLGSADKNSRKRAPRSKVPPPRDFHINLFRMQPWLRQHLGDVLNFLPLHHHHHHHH
# assayText: cell-based or functional assay
measure: IC50, inhibition of human lectin complement pathway (Wieslab assay) (nM)
Numbers only, in nM.

Look up IC50, inhibition of human lectin complement pathway (Wieslab assay) for the entries below, preserving their order.
1. RF16-203G (antibody, V domains shown) VH: EVQLLESGGGLVQPGGSLRLSCAASGFTFSRYYMMWVRQAPGKGLEWVSSIGSSGGTTNYADSVKGRFTISRDNSKNTLYLQMNSLRAEDTAVYYCAKGGMVLGVVNIWGQGTLVTVSS VL: SYELTQPPSVSVSPGQTASITCSGDKLGEKYVSWYQQKPGQSPVLVIYQDIKRPSGIPERFSGSNSGNTATLTISGTQAMDEADYYCQTWGTGGIQVFGGGTKLTVLG
2. RF16-242 (antibody, V domains shown) VH: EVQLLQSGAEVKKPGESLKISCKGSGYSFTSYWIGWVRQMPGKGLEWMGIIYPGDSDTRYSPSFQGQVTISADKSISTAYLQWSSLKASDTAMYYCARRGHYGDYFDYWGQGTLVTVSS VL: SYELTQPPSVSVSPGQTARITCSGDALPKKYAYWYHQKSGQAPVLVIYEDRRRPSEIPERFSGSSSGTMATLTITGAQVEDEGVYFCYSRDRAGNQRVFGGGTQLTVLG
3. RF16-242G (antibody, V domains shown, Germlined version of RF16-242) VH: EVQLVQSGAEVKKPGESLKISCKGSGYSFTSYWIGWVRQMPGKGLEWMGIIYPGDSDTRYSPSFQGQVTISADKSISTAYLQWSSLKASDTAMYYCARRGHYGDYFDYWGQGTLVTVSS VL: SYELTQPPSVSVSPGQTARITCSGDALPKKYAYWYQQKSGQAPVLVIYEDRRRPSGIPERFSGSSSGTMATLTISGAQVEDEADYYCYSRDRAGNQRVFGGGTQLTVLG

-- reply
1: 33.2; 2: 2.91; 3: 3.19
